Items are presented alongside their recorded z-score.
- TEST_TARGET: Metabotropic glutamate receptor 8 (Rattus norvegicus) (UniProt P70579)
- Sequence (P70579 whole entry, looked up): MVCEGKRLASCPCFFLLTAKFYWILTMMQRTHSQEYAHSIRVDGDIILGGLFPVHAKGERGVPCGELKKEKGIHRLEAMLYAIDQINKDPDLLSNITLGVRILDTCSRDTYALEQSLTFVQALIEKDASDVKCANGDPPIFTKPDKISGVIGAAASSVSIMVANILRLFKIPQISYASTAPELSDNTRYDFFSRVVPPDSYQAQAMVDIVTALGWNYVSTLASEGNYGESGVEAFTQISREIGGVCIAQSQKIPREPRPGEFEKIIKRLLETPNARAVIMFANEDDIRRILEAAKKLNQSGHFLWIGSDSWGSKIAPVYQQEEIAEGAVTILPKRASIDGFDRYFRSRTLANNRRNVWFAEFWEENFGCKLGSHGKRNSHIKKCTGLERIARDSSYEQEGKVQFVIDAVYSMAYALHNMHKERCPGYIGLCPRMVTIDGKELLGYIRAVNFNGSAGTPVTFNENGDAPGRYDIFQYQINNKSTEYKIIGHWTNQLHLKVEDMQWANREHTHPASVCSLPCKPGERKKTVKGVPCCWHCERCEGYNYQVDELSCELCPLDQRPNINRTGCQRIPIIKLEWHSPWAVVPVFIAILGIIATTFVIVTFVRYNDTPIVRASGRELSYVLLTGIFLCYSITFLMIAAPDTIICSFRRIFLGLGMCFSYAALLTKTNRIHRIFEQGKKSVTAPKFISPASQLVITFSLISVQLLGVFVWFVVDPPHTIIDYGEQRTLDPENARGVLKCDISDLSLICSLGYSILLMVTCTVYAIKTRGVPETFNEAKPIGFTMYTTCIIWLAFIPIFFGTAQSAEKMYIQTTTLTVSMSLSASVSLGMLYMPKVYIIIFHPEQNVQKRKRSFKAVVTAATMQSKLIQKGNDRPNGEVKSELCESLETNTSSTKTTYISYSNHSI
- TEST_METHOD_NOTES: mGluR8 Gi/Go-coupled signaling modulation – cell-based, rat, thallium flux, HTS, primary screen (AID 488969)
- CONDITION_DETAILS: HEK293 rat mGluR8, GIRK thallium flux, FluoZin2; at 10 µM; stronger effect = higher value; submaximal glutamate (EC20) added with thallium
The full ranking holds about 110,000 compounds; the median of “z-score” is about -0.1, and the highest 2% start at about 2. The sample as a whole holds a higher share of the highest values than the screen did.
READOUT_NAME: z-score

[[record]]
query_smiles = "O=S(=O)(NCCOc1cccc2cccnc12)c1ccc(F)cc1"
numeric_readout = -0.153

[[record]]
query_smiles = "CCc1ccc(C(=O)NC(=S)Nc2ccc3c(c2)OCCO3)cc1"
numeric_readout = 0.946

[[record]]
query_smiles = "COc1ccc(S(=O)(=O)Nc2cc(Sc3ncn[nH]3)c(O)c3ccccc23)cc1"
numeric_readout = 0.366

[[record]]
query_smiles = "CCOc1ccc2c(c1)C(C)=CC(C)(C)N2C(=O)Nc1ccccc1F"
numeric_readout = -0.0976

[[record]]
query_smiles = "Cc1cc(C)cc(C(=O)NC(=S)Nc2ccc3c(c2)OCCO3)c1"
numeric_readout = -0.353

[[record]]
query_smiles = "O=C(c1cccc(-n2cnnn2)c1)N1CC=C(c2ccccc2)CC1"
numeric_readout = 0.39


====

- TEST_TARGET: Metabotropic glutamate receptor 8 (Rattus norvegicus)
- TEST_METHOD_NOTES: mGluR8 Gi/Go-coupled signaling modulation – cell-based, rat, thallium flux, HTS, primary screen (AID 488969)
- CONDITION_DETAILS: HEK293 rat mGluR8, GIRK thallium flux, FluoZin2; at 10 µM; stronger effect = higher value; submaximal glutamate (EC20) added with thallium
Whole data set: some 110,000 compounds, median “z-score” near -0.1, cut for the highest 2% near 2. The list comes from a sample in which the highest values are over-represented; it also holds close analogues and randomly drawn compounds.
READOUT_NAME: z-score

[[record]]
compound = "CCOC(=O)C1=NNC(C(=O)c2ccc(C)cc2)C1c1ccc(C)cc1 (stereo unspecified)"
readout_name = "z-score"
numeric_readout = -0.512

[[record]]
compound = "CCNC(=S)SCCOc1ccc(C)cc1"
readout_name = "z-score"
numeric_readout = 0.376

[[record]]
compound = "CNC(=S)SCCOc1ccc(C)cc1"
readout_name = "z-score"
numeric_readout = 6.37

[[record]]
compound = "O=C(COC(=O)CCC1CCCC1)Nc1ccccc1Sc1ccccc1"
readout_name = "z-score"
numeric_readout = -0.2

[[record]]
compound = "CC(=O)c1ccc(OCC(O)CN2C(C)(C)CC(O)CC2(C)C)cc1 (stereo unspecified)"
readout_name = "z-score"
numeric_readout = -0.153

[[record]]
compound = "Cc1ccc(-c2cc3cccc[n+]3cc2-c2ccc(C)cc2)cc1"
readout_name = "z-score"
numeric_readout = -0.0109


====

- TEST_TARGET: Metabotropic glutamate receptor 8 (Rattus norvegicus) (UniProt P70579)
- TEST_METHOD_NOTES: mGluR8 Gi/Go-coupled signaling modulation – cell-based, rat, thallium flux, HTS, primary screen (AID 488969)
- CONDITION_DETAILS: HEK293 rat mGluR8, GIRK (G protein-gated inwardly rectifying potassium channel) thallium flux, FluoZin2; at 10 µM; stronger effect = higher value; submaximal glutamate (EC20) added with thallium
Whole data set: some 110,000 compounds, median “z-score” near -0.1, cut for the highest 2% near 2. Shown is part of a subset that was picked to be rich in the highest values.
# binarize z-score: threshold 0.1 inclusive, high side T, low side F

[[record]]
molecule = "CNc1ccccc1-n1ccc(-c2ccccc2)n1"
test_target = "Metabotropic glutamate receptor 8 (Rattus norvegicus) (UniProt P70579)"
class_name = "T"

[[record]]
molecule = "COc1ccc(NC(=S)Nc2ccc(S(=O)(=O)N3CCOCC3)cc2)c(OC)c1"
test_target = "Metabotropic glutamate receptor 8 (Rattus norvegicus) (UniProt P70579)"
class_name = "T"

[[record]]
molecule = "CCN(CC)CC(O)COc1ccc2c(c1)OCO2 (centres undefined)"
test_target = "Metabotropic glutamate receptor 8 (Rattus norvegicus) (UniProt P70579)"
class_name = "F"

[[record]]
molecule = "CC(=O)NC(CC(=O)NC1CCCCCC1)c1ccccc1 (centres undefined)"
test_target = "Metabotropic glutamate receptor 8 (Rattus norvegicus) (UniProt P70579)"
class_name = "T"

[[record]]
molecule = "O=C(Nc1cccc(-c2cc3ccccc3oc2=O)c1)c1ccc(Br)o1"
test_target = "Metabotropic glutamate receptor 8 (Rattus norvegicus) (UniProt P70579)"
class_name = "F"

[[record]]
molecule = "CC(C)c1ccccc1N=C1SCCN1C1CCS(=O)(=O)C1 (centres undefined)"
test_target = "Metabotropic glutamate receptor 8 (Rattus norvegicus) (UniProt P70579)"
class_name = "T"

[[record]]
molecule = "Cc1cc(/C=C2\\C(=N)N3C(SCc4ccccc4)=NSC3=NC2=O)c(C)n1Cc1ccccc1"
test_target = "Metabotropic glutamate receptor 8 (Rattus norvegicus) (UniProt P70579)"
class_name = "T"

[[record]]
molecule = "CC(C)Cn1c(N)c(C(=O)CSc2ccccc2)c(=O)n(C)c1=O"
test_target = "Metabotropic glutamate receptor 8 (Rattus norvegicus) (UniProt P70579)"
class_name = "F"

[[record]]
molecule = "CC(C)Cn1c(N)c(C(=O)CSc2nnnn2C)c(=O)n(C)c1=O"
test_target = "Metabotropic glutamate receptor 8 (Rattus norvegicus) (UniProt P70579)"
class_name = "F"

[[record]]
molecule = "Cc1ccnc(NC(=O)CCC(=O)N(CC(=O)NC2CCCCC2)c2cccc(C)c2C)c1"
test_target = "Metabotropic glutamate receptor 8 (Rattus norvegicus) (UniProt P70579)"
class_name = "F"

[[record]]
molecule = "CCCCn1c(N)c(C(=S)NC(=O)CC(C)(C)C)c(=O)n(C)c1=O"
test_target = "Metabotropic glutamate receptor 8 (Rattus norvegicus) (UniProt P70579)"
class_name = "T"

[[record]]
molecule = "O=C(Nc1nc(-c2ccccc2)cs1)c1ccc(Br)o1"
test_target = "Metabotropic glutamate receptor 8 (Rattus norvegicus) (UniProt P70579)"
class_name = "T"

[[record]]
molecule = "C=CCn1c(-c2ccc(S(=O)(=O)N3CCOCC3)cc2)csc1=Nc1ccccc1"
test_target = "Metabotropic glutamate receptor 8 (Rattus norvegicus) (UniProt P70579)"
class_name = "F"

[[record]]
molecule = "Cc1cc(N=Cc2cc(Br)ccc2O)no1"
test_target = "Metabotropic glutamate receptor 8 (Rattus norvegicus) (UniProt P70579)"
class_name = "F"

[[record]]
molecule = "O=C(O)c1cc(NCc2ccccc2C(F)(F)F)ccc1N1CCOCC1"
test_target = "Metabotropic glutamate receptor 8 (Rattus norvegicus) (UniProt P70579)"
class_name = "F"

[[record]]
molecule = "Cc1nn(-c2ccccc2)c(C)c1/C=N/NC(=O)CSc1nnc(-c2ccccc2)n1-c1ccc(Cl)cc1"
test_target = "Metabotropic glutamate receptor 8 (Rattus norvegicus) (UniProt P70579)"
class_name = "F"

[[record]]
molecule = "CC(=O)Nc1ccc([N+](=O)[O-])cn1"
test_target = "Metabotropic glutamate receptor 8 (Rattus norvegicus) (UniProt P70579)"
class_name = "F"

[[record]]
molecule = "CSC1=NSC2=NC(=O)/C(=C/c3coc4ccc(O)cc4c3=O)C(=N)N12"
test_target = "Metabotropic glutamate receptor 8 (Rattus norvegicus) (UniProt P70579)"
class_name = "F"

[[record]]
molecule = "O=C(COC(=O)C1=Cc2ccccc2OC1)NC1CCCC1"
test_target = "Metabotropic glutamate receptor 8 (Rattus norvegicus) (UniProt P70579)"
class_name = "F"

[[record]]
molecule = "O=C(Cc1ccccc1)NC(NNc1ccccc1)(C(F)(F)F)C(F)(F)F"
test_target = "Metabotropic glutamate receptor 8 (Rattus norvegicus) (UniProt P70579)"
class_name = "F"

[[record]]
molecule = "O=C(Nc1nc(-c2cc3ccccc3oc2=O)cs1)c1ccc(Br)o1"
test_target = "Metabotropic glutamate receptor 8 (Rattus norvegicus) (UniProt P70579)"
class_name = "T"

[[record]]
molecule = "Cc1cc(C2=NNC(=NCc3ccccc3)SC2)c(C)n1-c1c(C)n(C)n(-c2ccccc2)c1=O"
test_target = "Metabotropic glutamate receptor 8 (Rattus norvegicus) (UniProt P70579)"
class_name = "F"

[[record]]
molecule = "NC(=S)NNC(=O)Nc1ccc(Cl)c(Cl)c1"
test_target = "Metabotropic glutamate receptor 8 (Rattus norvegicus) (UniProt P70579)"
class_name = "T"

[[record]]
molecule = "COc1ccc(Cn2c(-c3ccco3)nc3oc4cc(OC)ccc4c(=O)c3c2=O)cc1"
test_target = "Metabotropic glutamate receptor 8 (Rattus norvegicus) (UniProt P70579)"
class_name = "T"

[[record]]
molecule = "O=C(Nc1nc(-c2ccccc2)cs1)c1cccs1"
test_target = "Metabotropic glutamate receptor 8 (Rattus norvegicus) (UniProt P70579)"
class_name = "F"

[[record]]
molecule = "CSC1=NSC2=NC(=O)/C(=C/c3coc4ccccc4c3=O)C(=N)N12"
test_target = "Metabotropic glutamate receptor 8 (Rattus norvegicus) (UniProt P70579)"
class_name = "T"

[[record]]
molecule = "CN1CCN(C(=O)c2ccc(-c3nn(C)c(=O)c4ccccc34)cc2)CC1"
test_target = "Metabotropic glutamate receptor 8 (Rattus norvegicus) (UniProt P70579)"
class_name = "F"

[[record]]
molecule = "COC(=O)c1[nH]c2ccc(F)cc2c1NC(=O)CCN1CC(C)OC(C)C1 (centres undefined)"
test_target = "Metabotropic glutamate receptor 8 (Rattus norvegicus) (UniProt P70579)"
class_name = "F"

[[record]]
molecule = "Cc1cc(Cl)ccc1OC(C)C(=O)Nc1ccc([N+](=O)[O-])cn1 (centres undefined)"
test_target = "Metabotropic glutamate receptor 8 (Rattus norvegicus) (UniProt P70579)"
class_name = "T"

[[record]]
molecule = "CCOC(=O)c1cnc(-c2ccccc2)nc1Oc1ccccc1"
test_target = "Metabotropic glutamate receptor 8 (Rattus norvegicus) (UniProt P70579)"
class_name = "F"

[[record]]
molecule = "O=C(CCCOc1ccc(Cl)cc1Cl)N/N=C\\C1CCCCC1"
test_target = "Metabotropic glutamate receptor 8 (Rattus norvegicus) (UniProt P70579)"
class_name = "F"

[[record]]
molecule = "c1ccc(-c2ccn3nnnc3n2)cc1"
test_target = "Metabotropic glutamate receptor 8 (Rattus norvegicus) (UniProt P70579)"
class_name = "F"

[[record]]
molecule = "COc1ccc(C(=O)CSc2ccc(-c3ccccc3)nn2)cc1"
test_target = "Metabotropic glutamate receptor 8 (Rattus norvegicus) (UniProt P70579)"
class_name = "F"

[[record]]
molecule = "CC(OC(=O)CCc1nc2ccccc2c(=O)[nH]1)C(=O)NC1CCCC1 (centres undefined)"
test_target = "Metabotropic glutamate receptor 8 (Rattus norvegicus) (UniProt P70579)"
class_name = "F"

[[record]]
molecule = "CCc1ccc2[nH]c(O)c(N=Nc3nc(-c4ccccc4)cs3)c2c1"
test_target = "Metabotropic glutamate receptor 8 (Rattus norvegicus) (UniProt P70579)"
class_name = "T"

[[record]]
molecule = "Cc1ccc(S(=O)(=O)NCc2c(-c3ccccc3)c3cc(Cl)ccc3[nH]c2=O)cc1"
test_target = "Metabotropic glutamate receptor 8 (Rattus norvegicus) (UniProt P70579)"
class_name = "F"

[[record]]
molecule = "COc1ccc(CC(=O)NCc2ccco2)cc1OC"
test_target = "Metabotropic glutamate receptor 8 (Rattus norvegicus) (UniProt P70579)"
class_name = "F"

[[record]]
molecule = "CCCOC(=O)C1[C@H]2C(=O)N(C(C)c3ccc(OC)cc3)C[C@]23C=C[C@H]1O3 (some centres undefined)"
test_target = "Metabotropic glutamate receptor 8 (Rattus norvegicus) (UniProt P70579)"
class_name = "T"

[[record]]
molecule = "O=C(Nc1nc2c(Cl)cccc2s1)c1ccc(Br)o1"
test_target = "Metabotropic glutamate receptor 8 (Rattus norvegicus) (UniProt P70579)"
class_name = "T"

[[record]]
molecule = "O=C(CN(c1ccc(Cl)cc1)S(=O)(=O)c1ccccc1)N1CCN(c2ccccc2)CC1"
test_target = "Metabotropic glutamate receptor 8 (Rattus norvegicus) (UniProt P70579)"
class_name = "F"

[[record]]
molecule = "COc1cc(OC)c(OC)cc1CN(C)C(c1ccccc1)c1nnnn1-c1ccccc1C (centres undefined)"
test_target = "Metabotropic glutamate receptor 8 (Rattus norvegicus) (UniProt P70579)"
class_name = "F"

[[record]]
molecule = "CCOc1c(OC(C)=O)ccc(/C=C/c2ccc3cccc(OC(C)=O)c3n2)c1[N+](=O)[O-]"
test_target = "Metabotropic glutamate receptor 8 (Rattus norvegicus) (UniProt P70579)"
class_name = "F"

[[record]]
molecule = "CSc1nc(N(C)C)nc(N2CC(=O)N(CCNS(=O)(=O)c3ccc(C)cc3)C2=N)n1"
test_target = "Metabotropic glutamate receptor 8 (Rattus norvegicus) (UniProt P70579)"
class_name = "F"

